Recorded values, source patent US20250295799A1.

Known Bmax (MFI) of a selection of binders
Biological target: T1, cynomolgus monkey glypican-3 (GPC3) (cynomolgus monkey, UniProt A5A6P7 25-554 (Pan troglodytes entry))
T1 construct: Transiently expressed on CHO-S cells; also called cynoGPC3; CynoGPC3-CHO
Assay: flow cytometry on CHO-S cells transfected with cynomolgus GPC3;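 further: antibodies incubated 24 h at 4 °C with transiently transfected cells, binding read as AF647 geometric mean fluorescence of live cells, GFP-transfected cells as negative control, Hill-slope specific-binding fit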
propertyMeasured: Bmax (MFI)

binder | propertyMeasured | unitSpec | number
H18L6_LC_G34Q mAb, v40208 (antibody, human IgG1, kappa, V domains shown, Full-size IgG1/kappa) VH: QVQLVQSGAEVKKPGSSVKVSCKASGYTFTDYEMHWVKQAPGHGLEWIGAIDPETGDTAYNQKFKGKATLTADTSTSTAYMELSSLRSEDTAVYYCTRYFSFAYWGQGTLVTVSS VL: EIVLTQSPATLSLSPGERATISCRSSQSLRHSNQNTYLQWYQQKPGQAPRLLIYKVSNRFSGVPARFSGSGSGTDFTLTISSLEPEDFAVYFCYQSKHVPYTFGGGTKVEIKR | Bmax (MFI) | MFI | 2820
H18L6_LC_G34D mAb, v40203 (antibody, human IgG1, kappa, V domains shown) VH: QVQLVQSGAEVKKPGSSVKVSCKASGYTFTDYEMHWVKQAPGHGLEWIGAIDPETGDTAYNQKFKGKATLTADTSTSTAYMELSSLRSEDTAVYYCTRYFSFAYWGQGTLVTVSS VL: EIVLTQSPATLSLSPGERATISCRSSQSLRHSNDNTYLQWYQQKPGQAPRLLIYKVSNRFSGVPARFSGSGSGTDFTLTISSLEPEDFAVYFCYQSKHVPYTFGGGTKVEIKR | Bmax (MFI) | MFI | 2870
H18L6_LC_G34K mAb, v40207 (antibody, human IgG1, kappa, V domains shown, Full-size IgG1/kappa) VH: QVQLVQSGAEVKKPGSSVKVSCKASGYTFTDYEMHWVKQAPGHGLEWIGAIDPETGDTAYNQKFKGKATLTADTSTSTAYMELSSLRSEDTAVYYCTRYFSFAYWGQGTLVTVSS VL: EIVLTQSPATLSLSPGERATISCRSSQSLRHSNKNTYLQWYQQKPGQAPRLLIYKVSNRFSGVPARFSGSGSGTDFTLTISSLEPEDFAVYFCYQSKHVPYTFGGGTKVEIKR | Bmax (MFI) | MFI | 2930
codrituzumab (v37575) (antibody, human IgG1, kappa, V domains shown, also called GC33; RG-7686) VH: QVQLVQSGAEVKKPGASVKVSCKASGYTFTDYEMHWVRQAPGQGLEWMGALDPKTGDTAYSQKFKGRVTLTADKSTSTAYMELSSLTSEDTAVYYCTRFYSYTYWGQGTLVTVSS VL: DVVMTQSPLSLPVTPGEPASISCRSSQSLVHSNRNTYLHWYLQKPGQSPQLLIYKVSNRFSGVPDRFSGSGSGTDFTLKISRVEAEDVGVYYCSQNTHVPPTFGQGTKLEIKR | Bmax (MFI) | MFI | 3280
H18L6_LC_G34V mAb, v40211 (antibody, human IgG1, kappa, V domains shown, M3-H18L6 chains with the stated light chain point mutation, IgG1/kappa) VH: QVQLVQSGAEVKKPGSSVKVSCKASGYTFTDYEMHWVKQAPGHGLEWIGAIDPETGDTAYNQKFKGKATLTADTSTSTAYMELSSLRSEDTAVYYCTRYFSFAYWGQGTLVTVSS VL: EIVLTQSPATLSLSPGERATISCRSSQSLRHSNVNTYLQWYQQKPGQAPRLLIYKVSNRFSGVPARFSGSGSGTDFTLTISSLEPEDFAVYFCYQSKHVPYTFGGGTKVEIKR | Bmax (MFI) | MFI | 2640
